# Lookup of reported inhibition at 5 µM keyed by entry
Biological target: tubulin colchicine site (Bos taurus, UniProt P81947+Q6B856)
Sequence (Q6B856 whole entry): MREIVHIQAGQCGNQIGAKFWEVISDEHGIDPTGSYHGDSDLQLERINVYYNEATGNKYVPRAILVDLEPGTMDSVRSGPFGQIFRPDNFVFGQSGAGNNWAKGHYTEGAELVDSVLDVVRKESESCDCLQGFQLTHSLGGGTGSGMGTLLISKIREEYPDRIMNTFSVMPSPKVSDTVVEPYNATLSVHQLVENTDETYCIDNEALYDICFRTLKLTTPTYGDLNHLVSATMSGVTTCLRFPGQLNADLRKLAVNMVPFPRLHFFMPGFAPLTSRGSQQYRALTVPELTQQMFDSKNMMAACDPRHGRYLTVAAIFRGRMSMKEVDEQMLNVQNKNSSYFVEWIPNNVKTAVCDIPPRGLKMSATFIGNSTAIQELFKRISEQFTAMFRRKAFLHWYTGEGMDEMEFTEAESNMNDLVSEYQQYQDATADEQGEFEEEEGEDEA
Sequence (P81947 whole entry): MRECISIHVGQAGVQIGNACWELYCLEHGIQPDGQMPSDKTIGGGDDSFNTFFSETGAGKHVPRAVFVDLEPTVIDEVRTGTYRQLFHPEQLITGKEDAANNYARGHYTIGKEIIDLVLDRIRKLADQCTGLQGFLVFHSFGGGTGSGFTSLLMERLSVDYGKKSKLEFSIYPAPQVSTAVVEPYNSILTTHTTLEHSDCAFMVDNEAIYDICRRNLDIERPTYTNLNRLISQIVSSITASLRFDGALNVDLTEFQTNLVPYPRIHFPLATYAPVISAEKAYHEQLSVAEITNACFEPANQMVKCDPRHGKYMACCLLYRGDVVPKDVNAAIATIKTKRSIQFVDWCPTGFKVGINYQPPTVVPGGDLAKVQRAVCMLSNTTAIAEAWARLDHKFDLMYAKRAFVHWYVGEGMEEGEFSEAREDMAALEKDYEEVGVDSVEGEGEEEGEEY
Test: Inhibition of [3H]colchicine binding to tubulin
Settings: read-out: inhibition of colchicine binding % inhibition ± SD
MEASURED_ATTRIBUTE: inhibition at 5 µM (%)

>  <COMPOUND>
COc1ccc(OC)c(Cn2ccc3c2-c2oncc2CCC3)c1 [Compound 57]

>  <RECORDED_VALUE>
38

$$$$
>  <COMPOUND>
COc1cc(Cn2ccc3c2-c2oncc2CCC3)cc(OC)c1 [Compound 58]

>  <RECORDED_VALUE>
25

$$$$
>  <COMPOUND>
CCOC(=O)c1cc2c(n1Cc1cc(OC)c(OC)c(OC)c1)-c1oncc1CCC2 [Compound 67]

>  <RECORDED_VALUE>
25

$$$$
>  <COMPOUND>
CCOC(=O)c1cc2c(n1Cc1cc(OC)cc(OC)c1)-c1oncc1CCC2 [Compound 66]

>  <RECORDED_VALUE>
62

$$$$
>  <COMPOUND>
COc1ccc(/C=C\c2cc(OC)c(OC)c(OC)c2)cc1O [CA-4, combretastatin A-4, reference compound]

>  <RECORDED_VALUE>
97

$$$$
>  <COMPOUND>
CCOC(=O)c1c(Cl)c2c(n1Cc1cc(OC)cc(OC)c1)-c1oncc1CCC2 [Compound 75]

>  <RECORDED_VALUE>
42

$$$$

----------
System: SU-DHL-10 (GCB DLBCL)
Assay: MTT cell proliferation, lymphoma
Assay type: cell-based
Details: Homo sapiens, SU-DHL10; 1 μM, 72 h, of untreated cells; read-out: Proliferating cells (%)
Experimental: All compounds were further tested at the concentration of 1 μM on four cell lines derived from distinct lymphoma histotypes, plus two with secondary resistance to the PI3Kδ inhibitor idelalisib[51] or to the BTK inhibitor ibrutinib.[52] […] The antiproliferative activity of all compounds was assessed by using the 3-(4.5-dimethylthiazolyl-2)-2,5-diphenyltetrazolium bromide (MTT) test. […] Wells containing medium only were included on each plate and served as blanks for absorbance readings. […]
Param threshold (70%) applies to activity at 1 µM; output class 1 when value >= threshold, class 0 when value < threshold.

>  <INPUT_SMILES>
CCOC(=O)c1c(Cl)c2c(n1Cc1cccc(OC)c1)-c1oncc1CCC2

>  <ANSWER_LABEL>
class 1

$$$$
>  <INPUT_SMILES>
CCOC(=O)c1c(Cl)c2c(n1Cc1cc(OC)cc(OC)c1)-c1oncc1CCC2

>  <ANSWER_LABEL>
class 0

$$$$
>  <INPUT_SMILES>
COc1cccc(Cn2ccc3c2-c2oncc2CCC3)c1

>  <ANSWER_LABEL>
class 1

$$$$
>  <INPUT_SMILES>
CCOC(=O)c1c(Cl)c2c(n1C)-c1oncc1CCC2

>  <ANSWER_LABEL>
class 1

$$$$
>  <INPUT_SMILES>
COc1cc(Cn2ccc3c2-c2oncc2CCC3)cc(OC)c1

>  <ANSWER_LABEL>
class 1

$$$$
>  <INPUT_SMILES>
CCOC(=O)c1cc2c(n1C)-c1oncc1CCC2

>  <ANSWER_LABEL>
class 0

$$$$
>  <INPUT_SMILES>
CCOC(=O)c1cc2c(n1Cc1cc(OC)cc(OC)c1)-c1oncc1CCC2

>  <ANSWER_LABEL>
class 0

$$$$
>  <INPUT_SMILES>
COc1cc(Cn2ccc3c2-c2oncc2CCC3)cc(OC)c1OC

>  <ANSWER_LABEL>
class 1

$$$$

----------
Data export: GI50 values recorded with SF-295.

>  <COMPOUND>
CCOC(=O)c1cc2c(n1Cc1ccccc1OC)-c1oncc1CCC2 [Compound 62]

>  <QUAL>
=

>  <GI50 [nM]>
1380

$$$$
>  <COMPOUND>
CCOC(=O)c1c(Cl)c2c(n1Cc1ccccc1)-c1oncc1CCC2 [Compound 70]

>  <QUAL>
>

>  <GI50 [nM]>
100000

$$$$
>  <COMPOUND>
CCOC(=O)c1cc2c(n1Cc1cc(OC)cc(OC)c1)-c1oncc1CCC2 [Compound 66]

>  <QUAL>
=

>  <GI50 [nM]>
30

$$$$
>  <COMPOUND>
CCOC(=O)c1cc2c(n1Cc1cc(OC)c(OC)c(OC)c1)-c1oncc1CCC2 [Compound 67]

>  <QUAL>
=

>  <GI50 [nM]>
440

$$$$
>  <COMPOUND>
CCOC(=O)c1c(Cl)c2c(n1Cc1cc(OC)cc(OC)c1)-c1oncc1CCC2 [Compound 75]

>  <QUAL>
=

>  <GI50 [nM]>
60

$$$$
>  <COMPOUND>
CCOC(=O)c1cc2c(n1Cc1cccc(OC)c1)-c1oncc1CCC2 [Compound 63]

>  <QUAL>
=

>  <GI50 [nM]>
620

$$$$

----------
Tested on: COLO 205
MEASURED_ATTRIBUTE: log10 of GI50 (log10 of the value in nM)

>  <INPUT_SMILES>
CCOC(=O)c1cc2c(n1Cc1cc(OC)cc(OC)c1)-c1oncc1CCC2

>  <TARGET_OR_TEST_SYSTEM>
COLO 205

>  <RECORDED_VALUE>
1.48

$$$$
>  <INPUT_SMILES>
CCOC(=O)c1cc2c(n1Cc1cccc(OC)c1)-c1oncc1CCC2

>  <TARGET_OR_TEST_SYSTEM>
COLO 205

>  <RECORDED_VALUE>
2.76

$$$$
>  <INPUT_SMILES>
CCOC(=O)c1cc2c(n1Cc1ccccc1OC)-c1oncc1CCC2

>  <TARGET_OR_TEST_SYSTEM>
COLO 205

>  <RECORDED_VALUE>
2.94

$$$$
>  <INPUT_SMILES>
CCOC(=O)c1cc2c(n1Cc1cc(OC)c(OC)c(OC)c1)-c1oncc1CCC2

>  <TARGET_OR_TEST_SYSTEM>
COLO 205

>  <RECORDED_VALUE>
1.60

$$$$
>  <INPUT_SMILES>
CCOC(=O)c1c(Cl)c2c(n1Cc1ccccc1)-c1oncc1CCC2

>  <TARGET_OR_TEST_SYSTEM>
COLO 205

>  <RECORDED_VALUE>
3.55

$$$$
>  <INPUT_SMILES>
CCOC(=O)c1c(Cl)c2c(n1Cc1cc(OC)cc(OC)c1)-c1oncc1CCC2

>  <TARGET_OR_TEST_SYSTEM>
COLO 205

>  <RECORDED_VALUE>
2.23

$$$$

----------
System: T-47D
Test: NCI-60 screen
Assay type: cell-based
Details: Homo sapiens, T47D; Breast Cancer
Experimental: All the synthesized compounds 51–76 were tested at a 10^–5 M concentration for their antitumor activity on the full NCI-60 panel comprising cancer cell lines derived from nine human cancer cell types (leukemia, non-small-cell lung, colon, central nervous system, melanoma, ovarian, renal, prostate, and breast).[50]
Measured GI50, listed per entry.
MEASURED_ATTRIBUTE: GI50 (nM)

>  <COMPOUND>
CCOC(=O)c1cc2c(n1Cc1ccccc1OC)-c1oncc1CCC2 [Compound 62]

>  <TARGET_OR_TEST_SYSTEM>
T-47D

>  <MEASURED_ATTRIBUTE>
GI50

>  <RECORDED_VALUE>
2460

$$$$
>  <COMPOUND>
CCOC(=O)c1c(Cl)c2c(n1Cc1ccccc1)-c1oncc1CCC2 [Compound 70]

>  <TARGET_OR_TEST_SYSTEM>
T-47D

>  <MEASURED_ATTRIBUTE>
GI50

>  <RECORDED_VALUE>
2690

$$$$
>  <COMPOUND>
CCOC(=O)c1c(Cl)c2c(n1Cc1cc(OC)cc(OC)c1)-c1oncc1CCC2 [Compound 75]

>  <TARGET_OR_TEST_SYSTEM>
T-47D

>  <MEASURED_ATTRIBUTE>
GI50

>  <RECORDED_VALUE>
440

$$$$
>  <COMPOUND>
CCOC(=O)c1cc2c(n1Cc1cc(OC)c(OC)c(OC)c1)-c1oncc1CCC2 [Compound 67]

>  <TARGET_OR_TEST_SYSTEM>
T-47D

>  <MEASURED_ATTRIBUTE>
GI50

>  <RECORDED_VALUE>
100

$$$$
>  <COMPOUND>
CCOC(=O)c1cc2c(n1Cc1cccc(OC)c1)-c1oncc1CCC2 [Compound 63]

>  <TARGET_OR_TEST_SYSTEM>
T-47D

>  <MEASURED_ATTRIBUTE>
GI50

>  <RECORDED_VALUE>
2000

$$$$

----------
Item-by-item account of GI50
Test system: human peripheral blood lymphocytes stimulated with PHA
Assay: Cytotoxicity in PHA-stimulated PBLs (MTT)
Assay type: cell-based
Settings: Lymphocyte, 72 h, mean ± SEM, three experiments, read-out: GI50 PBLPHA

>  <COMPOUND>
CCOC(=O)c1cc2c(n1Cc1cccc(OC)c1)-c1oncc1CCC2

>  <GI50>
> 100 µM

$$$$
>  <COMPOUND>
CC[C@]1(O)C[C@H]2CN(CCc3c([nH]c4ccccc34)[C@@](C(=O)OC)(c3cc4c(cc3OC)N(C=O)[C@H]3[C@@](O)(C(=O)OC)[C@H](OC(C)=O)[C@]5(CC)C=CCN6CC[C@]43[C@@H]65)C2)C1 [vincristine, reference compound]

>  <GI50>
1.2 µM

$$$$
>  <COMPOUND>
CCOC(=O)c1cc2c(n1Cc1cc(OC)cc(OC)c1)-c1oncc1CCC2

>  <GI50>
> 100 µM

$$$$
>  <COMPOUND>
CCOC(=O)c1c(Cl)c2c(n1Cc1cc(OC)cc(OC)c1)-c1oncc1CCC2

>  <GI50>
> 100 µM

$$$$
